- TEST SYSTEM: T1, IGF-II (insulin-like growth factor II) (UniProt P01344 25-91)
- T1 construct: Amine-coupled (70 RU) to a CM-5 biosensor chip
- T1 sequence (P01344 25-91 limits assumed): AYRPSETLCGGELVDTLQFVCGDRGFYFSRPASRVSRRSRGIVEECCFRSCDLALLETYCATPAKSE
- PROCEDURE SUMMARY: SPR (BIAcore), IGF-II amine-coupled to CM5 chip; ratio against hIGFBP-2
EXPERIMENTAL READOUT: Rel. KD (KD of hIGFBP-2/KD of hIGFBP-2 mutant)
Numbers only.

# lookup: Rel. KD (KD of hIGFBP-2/KD of hIGFBP-2 mutant) of K227AHis hIGFBP-2 (other, human, mature) EVLFRCPPCTPERLAACGPPPVAPPAAVAAVAGGARMPCAELVREPGCGCCSVCARLEGEACGVYTPRCGQGLRCYPHPGSELPLQALVMGEGTCEKRRDAEYGASPEQVADNGDDHSEGGLVENHVDSTMNMLGGGGSAGRKPLKSGMKELAVFREKVTEQHRQMGKGGKHHLGLEEPKKLRPPPARTPCQQELDQVLERISTMRLPDERGPLEHLYSLHIPNCDAHGLYNLKQCKMSLNGQRGECWCVNPNTGKLIQGAPTIRGDPECHLFYNEQQEARGVHTQRMQHHHHHH 1.27
